Every entry's value here was drawn from paper PMC6838013.

Biological target: A. aegypti ACP receptor (AedaeACPR)
Assay: Calcium bioluminescence (aequorin) reporter assay of heterologously expressed ACPR
Conditions: CHO-K1 cells stably expressing aequorin, transiently transfected with ACPR and murine Gα15 (pBudCE4.1); luminescence 20 s; 3 to 4 independent biological replicates; ND = no determined EC50 due to minimal or no detectable activity up to 10 μM
pEC50: −log10 of the molar value. Non-standard residues stand in square brackets, D forms with d. Residues, ends and D or L forms follow the SMILES beside them. pGlu = O=C1CC[C@@H](C(=O)O)N1
Classify by measured pEC50: t if it is equal to or exceeds 6, f if it is smaller.

# example entries with known answers
compound: CC(C)[C@H](NC(=O)[C@@H]1CCC(=O)N1)C(=O)N[C@H](C(=O)N[C@@H](Cc1ccccc1)C(=O)N[C@@H](CO)C(=O)N[C@@H](CCCNC(=N)N)C(=O)N[C@@H](CC(=O)O)C(=O)N[C@@H](Cc1c[nH]c2ccccc12)C(=O)N[C@@H](C)C(=O)N[C@@H](C)C(N)=O)[C@@H](C)O [Aedae-ACP (A9)] ([pGlu]VTFSRDWAA-NH2)
target-under-test: A. aegypti ACP receptor (AedaeACPR)
qualitative-label: t

compound: CC(C)[C@H](NC(=O)[C@@H]1CCC(=O)N1)C(=O)N[C@H](C(=O)N[C@@H](Cc1ccccc1)C(=O)N[C@@H](CO)C(=O)N[C@@H](CCCNC(=N)N)C(=O)N[C@@H](CC(=O)O)C(=O)N[C@@H](Cc1c[nH]c2ccccc12)C(=O)N[C@@H](CC(N)=O)C(N)=O)[C@@H](C)O [Aedae-ACP (1-9)] ([pGlu]VTFSRDWN-NH2)
target-under-test: A. aegypti ACP receptor (AedaeACPR)
qualitative-label: f

compound: CC(C)[C@H](NC(=O)[C@@H]1CCC(=O)N1)C(=O)N[C@H](C(=O)N[C@@H](Cc1ccccc1)C(=O)N[C@@H](CO)C(=O)N[C@@H](CCCNC(=N)N)C(=O)N[C@@H](C)C(=O)N[C@@H](Cc1c[nH]c2ccccc12)C(=O)N[C@@H](CC(N)=O)C(=O)N[C@@H](C)C(N)=O)[C@@H](C)O [Aedae-ACP (A7)] ([pGlu]VTFSRAWNA-NH2)
target-under-test: A. aegypti ACP receptor (AedaeACPR)
qualitative-label: t

compound: CC(C)[C@H](NC(=O)[C@@H]1CCC(=O)N1)C(=O)N[C@H](C(=O)N[C@@H](Cc1ccccc1)C(=O)N[C@@H](CO)C(=O)N[C@@H](CCCNC(=N)N)C(=O)N[C@@H](CC(=O)O)C(=O)N[C@@H](Cc1c[nH]c2ccccc12)C(=O)N[C@@H](CC(N)=O)C(=O)N[C@@H](C)C(=O)NCC(N)=O)[C@@H](C)O [Aedae-ACP (+G)] ([pGlu]VTFSRDWNAG-NH2)
target-under-test: A. aegypti ACP receptor (AedaeACPR)
qualitative-label: t

compound: CC[C@H](C)[C@H](NC(=O)[C@@H]1CCC(=O)N1)C(=O)N[C@H](C(=O)N[C@@H](Cc1ccccc1)C(=O)N[C@@H](CO)C(=O)N[C@@H](CCCNC(=N)N)C(=O)N[C@@H](CC(=O)O)C(=O)N[C@@H](Cc1c[nH]c2ccccc12)C(=O)N[C@@H](CC(N)=O)C(=O)N[C@@H](C)C(N)=O)[C@@H](C)O [Grybi-ACP] ([pGlu]ITFSRDWNA-NH2)
target-under-test: A. aegypti ACP receptor (AedaeACPR)
qualitative-label: t

# ---- query compound ----
-- ask Could you verify whether the entry CC(C)[C@H](NC(=O)[C@@H]1CCC(=O)N1)C(=O)N[C@H](C(=O)N[C@@H](Cc1ccccc1)C(=O)N[C@@H](CO)C(=O)N[C@@H](CCCNC(=N)N)C(=O)N[C@@H](CC(=O)O)C(=O)N[C@@H](Cc1c[nH]c2ccccc12)C(N)=O)[C@@H](C)O [Aedae-ACP (1-8)] ([pGlu]VTFSRDW-NH2) shows pEC50 of no less than 6?
-- reply f
